Listing of entries alongside the reported IC50.
Test system: K-Ras G12V (Homo sapiens, UniProt P01116, G12V)
Sequence (P01116 1-188 isoform P01116-2 G12V): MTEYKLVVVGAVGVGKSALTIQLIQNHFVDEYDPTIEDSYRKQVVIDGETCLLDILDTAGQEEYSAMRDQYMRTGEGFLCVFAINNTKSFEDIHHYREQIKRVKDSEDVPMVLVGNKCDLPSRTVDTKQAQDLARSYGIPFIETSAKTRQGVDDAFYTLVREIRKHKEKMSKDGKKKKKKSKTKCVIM
Protocol text: HTRF resonance energy transfer assay, K-Ras G12V / SOS1 interaction
Recorded conditions: HTRF assay of Example 5; read-out: IC50 against K-Ras G12V

Sample records with IC50:
N#Cc1c(N)sc2c(F)ccc(-c3c(Cl)c4c5c(nc(OC[C@@]67CCCN6C[C@H](F)C7)nc5c3F)N(C3CCN(C(=O)C(F)F)CC3)CCO4)c12 [Compound 971] = < 100 nM
N#Cc1c(N)sc2c(F)ccc(-c3c(Cl)c4c5c(nc(OC[C@@]67CCCN6C[C@H](F)C7)nc5c3F)N(C3CCC5(C3)CN(C(=O)C3CC3)C5)CCO4)c12 (stereo partly drawn) [Compound 1011] = < 100 nM

--- query ---
IC50 in this record for N#Cc1c(N)sc2c(F)ccc(-c3c(Cl)c4c5c(nc(OC[C@@]67CCCN6C[C@H](F)C7)nc5c3F)N(C3CC(NC=O)C3)CCO4)c12 (stereo partly drawn) [Compound 836] : < 100 nM
